Tested on: Streptococcus pneumoniae IMC B-1233 (PRSP)
Assay: Antimicrobial activity test (MIC), clinical isolate IMC B-1233
Format: cell-based
Settings: Streptococcus pneumoniae IMC B-1233, PRSP
This section presents compounds with their documented MIC values.
Please give a number only; it is taken to be in µg/mL.

Study these solved cases before continuing.
CCC1OC(=O)CCC(C)C(OC2OC(C)CC(N(C)C)C2O)C(CC=O)CC(C)C(=O)C=CC(C)=CC1CCl (stereo not shown): 0.20
CCC1OC(=O)CCC(C)C(OC2OC(C)CC(N(C)C)C2O)C(CC=O)CC(C)C(=O)C=CC(C)=CC1CNC(=O)Cc1cccnc1 (stereo not shown): 0.05
CC=CC=CC(=O)OCC1C=C(C)C=CC(=O)C(C)CC(CC=O)C(OC2OC(C)CC(N(C)C)C2O)C(C)CCC(=O)OC1CC (stereo not shown): 0.10
CCC1OC(=O)CCC(C)C(OC2OC(C)CC(N(C)C)C2O)C(CC=O)CC(C)C(=O)C=CC(C)=CC1COC(=O)NCc1ccc(OC)cc1 (stereo not shown): 0.1
CCC1OC(=O)CCC(C)C(OC2OC(C)CC(N(C)C)C2O)C(CC=O)CC(C)C(=O)C=CC(C)=CC1CN(C)Cc1ccccc1 (stereo not shown): 0.1

Data request: Could you please provide reported MIC for CCC1OC(=O)CCC(C)C(OC2OC(C)CC(N(C)C)C2O)C(CC=O)CC(C)C(=O)C=CC(C)=CC1CN1CCC(CCO)CC1 (stereo not shown) ? Thanks!
Data returned: 0.78
